src = patent US10081606B2

Each entry below carries its reported GI50.
System: H1975 cells (EGFR L858R/T790M)
experiment_summary: Cell proliferation (CellTiter Glo, 72 hr), H1975
Assay type: cell-based, human
stated_conditions: Homo sapiens, NCI-H1975; H1975 cells, 72 hr; read-out: H1975 GI50

# annotated cases, reported GI50 shown
C=CC(=O)Nc1cccc(Nc2nc(Nc3ccc(OC)cc3OC)ncc2Cl)c1 [Compound I-21] :: > 1000 nM
C=CC(=O)Nc1cccc(Oc2nc(Nc3ccc(OC)cc3OC)ncc2C(F)(F)F)c1 [Compound I-9] :: 100 to 500 nM
C=CC(=O)Nc1cccc(Nc2nc(Nc3ccc(OC)cc3OC)ncc2Br)c1 [Compound I-20] :: > 1000 nM
C=CC(=O)Nc1cccc(Oc2nc(Nc3cccc(OC)c3OC)ncc2Br)c1 [Compound I-6] :: 500 to 1000 nM
C=CC(=O)Nc1cccc(Nc2nc(Nc3ccc(OC)c(OC)c3OC)ncc2Br)c1 [Compound I-5] :: > 1000 nM

// next item, GI50 requested
The molecule identified as C=CC(=O)Nc1cccc(Oc2nc(Nc3ccc(OC)c(OC)c3OC)ncc2Br)c1 [Compound I-8] registered its GI50 at > 1000 nM

---

Tested on: HCC827 cells (EGFR delE746-A750)
experiment_summary: Cell proliferation (CellTiter Glo, 72 hr), HCC827
Type: cell-based, human
stated_conditions: Homo sapiens; HCC827 cells, 72 hr; read-out: HCC827 GI50
measured_property: GI50

C=CC(=O)Nc1cccc(Nc2nc(Nc3ccc(OC)cc3OC)ncc2Cl)c1 :: 500 to 1000 nM
C=CC(=O)Nc1cccc(Nc2nc(Nc3ccc(OC)c(OC)c3OC)ncc2Cl)c1 :: 100 to 500 nM
C=CC(=O)Nc1cccc(Oc2nc(Nc3ccc(OC)cc3OC)ncc2Br)c1 :: 100 to 500 nM
C=CC(=O)Nc1cccc(Oc2nc(Nc3cccc(OC)c3OC)ncc2Br)c1 :: 500 to 1000 nM

# GI50 (compound: C=CC(=O)Nc1cccc(Nc2nc(Nc3ccc(OC)c(OC)c3OC)ncc2C(F)(F)F)c1 ) is 10 to 100 nM

Just so you know, measured GI50 for C=CC(=O)Nc1cccc(Oc2nc(Nc3cccc(OC)c3OC)ncc2C(F)(F)F)c1 came out at > 1000 nM

Query C=CC(=O)Nc1cccc(Oc2nc(Nc3ccc(OC)c(OC)c3OC)ncc2C(F)(F)F)c1 yields GI50 of 100 to 500 nM

# GI50 (compound: C=CC(=O)Nc1cccc(Oc2nc(Nc3ccccc3OC)ncc2C(F)(F)F)c1 ) is 100 to 500 nM

---

Reported GI50 values for a set of compounds
Test system: HCC827 cells (EGFR delE746-A750)
experiment_summary: Cell proliferation (CellTiter Glo, 72 hr), HCC827
Type: cell-based, human
stated_conditions: Homo sapiens; HCC827 cells, 72 hr; read-out: HCC827 GI50

Reference set (2 entries):
C=CC(=O)Nc1cccc(Nc2nc(Nc3ccc(OC)cc3OC)ncc2Br)c1 :: 0.1 to 0.5 µM
C=CC(=O)Nc1cccc(Nc2nc(Nc3ccccc3OC)ncc2C(F)(F)F)c1 :: 0.01 to 0.1 µM

# input for lookup
Entry C=CC(=O)Nc1cccc(Oc2nc(Nc3ccc(OC)cc3OC)ncc2C(F)(F)F)c1 ; assay system HCC827 cells (EGFR delE746-A750); GI50 recorded at 0.1 to 0.5 µM
